# credit: patent US8119624B2

# tested_system: Full-length glucokinase (beta cell isoform) (Homo sapiens, UniProt P35557)
# Construct: Full-length glucokinase (beta cell isoform) was His-tagged at N-terminus; His tag (N); made in house
# Sequence (P35557 whole entry, species assumed, canonical isoform): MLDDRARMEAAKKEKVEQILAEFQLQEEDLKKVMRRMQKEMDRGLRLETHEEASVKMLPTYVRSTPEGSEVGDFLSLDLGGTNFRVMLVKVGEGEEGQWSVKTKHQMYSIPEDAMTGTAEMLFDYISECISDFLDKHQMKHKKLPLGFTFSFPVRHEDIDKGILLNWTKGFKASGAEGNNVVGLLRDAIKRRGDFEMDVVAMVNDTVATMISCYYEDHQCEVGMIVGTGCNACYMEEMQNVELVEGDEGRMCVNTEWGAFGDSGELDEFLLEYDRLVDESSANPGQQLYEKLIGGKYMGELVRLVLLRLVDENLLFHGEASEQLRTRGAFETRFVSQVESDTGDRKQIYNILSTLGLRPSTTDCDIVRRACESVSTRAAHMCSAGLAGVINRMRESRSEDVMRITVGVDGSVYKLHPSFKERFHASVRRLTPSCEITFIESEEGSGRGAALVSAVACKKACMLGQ
# method_summary: Glucokinase biochemical assay (PK/LDH-coupled, NADH depletion at 340 nm): % activation, EC50, % max activation
# condition_label: 5 mM glucose; fitted maximum activation; read-out: % Max Activation
Would you mind labelling by Emax? At or over 200% is True, under is False.

Solved entries:
compound	label
Cn1ccc(NC(=O)c2cc(Oc3ccc(S(C)(=O)=O)c(Cl)c3)c3c(c2)OC(C)(C)C3)n1	True
Cn1ncc(NC(=O)c2cc(Oc3ccc(S(C)(=O)=O)c(Cl)c3)c3c(c2)OC(C)(C)C3)n1	True
Cc1cc2c(Oc3ccc(S(C)(=O)=O)cc3)cc(C(=O)Nc3ccon3)cc2o1	False

Enquiry: Reported Emax at or above 200%? CN(CC#N)C(=O)c1ccc(Oc2cc(C(=O)Nc3ccn(C)n3)cc3c2CC(C)(C)O3)cc1F
Return: False

Enquiry: Reported Emax at or above 200%? Cc1cc2c(Oc3ccc(S(=O)(=O)N4CCC4)cc3)cc(C(=O)Nc3ccc(Cl)cn3)cc2o1
Return: False

Enquiry: Reported Emax at or above 200%? Cn1ccc(NC(=O)c2cc(OCCCC#N)c3c(c2)OC(C)(C)C3)n1
Return: False

Enquiry: Reported Emax at or above 200%? Cc1ccc(NC(=O)c2cc(Oc3ccc(S(C)(=O)=O)cc3)c3c(c2)OC(C)(C)C3)nn1
Return: False

Enquiry: Reported Emax at or above 200%? Cn1ccc(NC(=O)c2cc(Oc3ccc(S(=O)(=O)N4CCC4)cc3)c3c(c2)OC(C)(C)C3)n1
Return: False

Enquiry: Reported Emax at or above 200%? CCNC(=O)c1ncc(Oc2cc(C(=O)Nc3ccn(C)n3)cc3c2CC(C)(C)O3)cc1NCC
Return: True

---

# tested_system: Full-length glucokinase (beta cell isoform) (Homo sapiens)
# Construct: Full-length glucokinase (beta cell isoform) was His-tagged at N-terminus; His tag (N); made in house
# method_summary: Glucokinase biochemical assay (PK/LDH-coupled, NADH depletion at 340 nm): % activation, EC50, % max activation
# condition_label: 10 uM compound; 5 mM glucose; % Activation=(Va/Vo−1)×100; read-out: % Activation at 10 uM
Would you mind labelling by activation at 10 µM? At or over 40% is yes (1), under is no (0).

compound	label
CN(C)C(=O)c1ccc(Oc2cc(C(=O)Nc3ccc(CO)cn3)cc3c2CC(C)(C)O3)cc1	no (0)
COCC1(C)Cc2c(Oc3ccc(C(=O)N4CCC4)c(F)c3)cc(C(=O)Nc3ccn(C)n3)cc2O1 (centres unmarked) [Example 242]	yes (1)
Cn1ncc(NC(=O)c2cc(Oc3ccc(S(=O)(=O)C4CC4)cc3)c3c(c2)OC(C)(C)C3)n1	yes (1)
CN(C)C1CN(C(=O)c2ccc(Oc3cc(C(=O)Nc4ccn(C)n4)cc4c3CC(C)(C)O4)c(F)c2)C1	yes (1)
CN(C)C(=O)c1ccc(Oc2cc(C(=O)Nc3ccn(C)n3)cc3c2CC(C)(CO)O3)cc1F (centres unmarked)	yes (1)

Enquiry: Reported activation at 10 µM at or above 40%? Cc1ccc(NC(=O)c2cc(Oc3ccc(S(C)(=O)=O)cc3)c3c(C)csc3c2)nc1
Return: no (0)

Enquiry: Reported activation at 10 µM at or above 40%? Cc1ccc(NC(=O)c2cc(Oc3ccc(S(C)(=O)=O)cc3)cc3occc23)nc1
Return: yes (1)

Enquiry: Reported activation at 10 µM at or above 40%? CN(C)C(=O)c1ccc(Oc2cc(C(=O)Nc3ccc(CNC4CC4)cn3)cc3c2CC(C)(C)O3)cc1F
Return: no (0)
